# assayedSystem: UniProt:P12527
# Sequence (P12527 whole entry): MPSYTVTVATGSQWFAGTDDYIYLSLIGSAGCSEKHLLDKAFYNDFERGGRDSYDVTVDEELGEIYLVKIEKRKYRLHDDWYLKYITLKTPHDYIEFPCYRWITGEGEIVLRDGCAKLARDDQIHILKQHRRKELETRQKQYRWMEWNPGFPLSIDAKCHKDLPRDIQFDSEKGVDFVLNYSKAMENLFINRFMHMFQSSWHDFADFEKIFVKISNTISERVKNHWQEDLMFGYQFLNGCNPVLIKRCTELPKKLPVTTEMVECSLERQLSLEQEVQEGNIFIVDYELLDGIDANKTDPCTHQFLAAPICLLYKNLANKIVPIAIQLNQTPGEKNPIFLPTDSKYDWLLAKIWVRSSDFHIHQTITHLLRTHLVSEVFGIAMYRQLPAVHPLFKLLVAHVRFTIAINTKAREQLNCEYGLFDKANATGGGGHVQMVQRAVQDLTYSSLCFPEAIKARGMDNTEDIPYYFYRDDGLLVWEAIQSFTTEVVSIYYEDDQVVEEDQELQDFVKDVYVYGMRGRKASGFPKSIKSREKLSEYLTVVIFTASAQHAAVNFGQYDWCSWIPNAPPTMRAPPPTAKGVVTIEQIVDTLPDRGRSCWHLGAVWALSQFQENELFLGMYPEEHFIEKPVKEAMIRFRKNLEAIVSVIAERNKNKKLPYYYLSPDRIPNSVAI
# measurementNotes: Inhibitory activity against 5-lipoxygenase in rat polymorphonuclear leukocytes

smilesData | IC50
COc1ccccc1CCOC(=O)/C(C#N)=C/c1ccc(O)c(O)c1 | 140 nM
N#C/C(=C\c1ccc(O)c(O)c1)C(=O)OCCCCCCCCn1ccnc1 | > 10000 nM
N#C/C(=C\c1ccc(O)c(O)c1)C(=O)OCCc1cccs1 | 90 nM
N#C/C(=C\c1ccc(O)c(O)c1)C(=O)OC/C=C/c1ccccc1 | 1890 nM
N#C/C(=C\c1ccc(O)c(O)c1)C(=O)OCCCCc1ccccc1 | 220 nM
N#C/C(=C\c1ccc(O)c(O)c1)C(=O)OCCCc1ccccc1 | 160 nM
CCOC(=O)/C(C#N)=C/c1ccc(O)c(O)c1 | > 10000 nM
N#C/C(=C\c1ccc(O)c(O)c1)C(=O)OCCCc1cccnc1 | > 10000 nM
N#C/C(=C\c1ccc(O)c(O)c1)C(=O)OCCc1ccccc1 | 160 nM

* * *

# assayedSystem: Polyunsaturated fatty acid lipoxygenase ALOX15B (Rattus norvegicus, UniProt Q8K4F2)
# Sequence (Q8K4F2 whole entry): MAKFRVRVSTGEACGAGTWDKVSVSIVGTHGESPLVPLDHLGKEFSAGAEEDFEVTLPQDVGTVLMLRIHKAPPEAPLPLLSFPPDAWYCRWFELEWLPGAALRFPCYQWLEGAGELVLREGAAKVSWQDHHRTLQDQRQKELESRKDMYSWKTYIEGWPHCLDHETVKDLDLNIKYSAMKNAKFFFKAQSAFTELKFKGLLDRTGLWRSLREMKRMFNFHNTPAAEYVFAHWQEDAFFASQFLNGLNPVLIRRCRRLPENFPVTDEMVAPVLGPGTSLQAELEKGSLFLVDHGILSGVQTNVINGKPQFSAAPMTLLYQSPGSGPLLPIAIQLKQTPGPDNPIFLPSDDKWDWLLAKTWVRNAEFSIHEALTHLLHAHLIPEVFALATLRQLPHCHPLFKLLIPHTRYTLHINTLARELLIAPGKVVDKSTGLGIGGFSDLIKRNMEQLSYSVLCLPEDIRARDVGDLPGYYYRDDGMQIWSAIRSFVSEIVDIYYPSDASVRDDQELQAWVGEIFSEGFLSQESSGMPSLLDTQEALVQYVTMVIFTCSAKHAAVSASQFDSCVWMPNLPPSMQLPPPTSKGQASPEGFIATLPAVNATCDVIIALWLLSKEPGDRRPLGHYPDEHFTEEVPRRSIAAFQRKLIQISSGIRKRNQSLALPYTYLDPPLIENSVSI
# measurementNotes: Inhibitory activity against 15-lipoxygenase in rat polymorphonuclear leukocytes
pIC50: −log10 of the molar value.

smilesData | assayedSystem | censoringSign | pIC50
N#C/C(=C\c1ccc(O)c(O)c1)C(=O)OCCc1cccs1 | Polyunsaturated fatty acid lipoxygenase ALOX15B (Rattus norvegicus, UniProt Q8K4F2) | = | 6.30
O=c1cc(-c2ccccc2)oc2cc(O)c(O)c(O)c12 | Polyunsaturated fatty acid lipoxygenase ALOX15B (Rattus norvegicus, UniProt Q8K4F2) | = | 6.59
N#C/C(=C\c1ccc(O)c(O)c1)C(=O)OC/C=C/c1ccccc1 | Polyunsaturated fatty acid lipoxygenase ALOX15B (Rattus norvegicus, UniProt Q8K4F2) | = | 5.48
N#C/C(=C\c1ccc(O)c(O)c1)C(=O)OCCCCc1ccccc1 | Polyunsaturated fatty acid lipoxygenase ALOX15B (Rattus norvegicus, UniProt Q8K4F2) | = | 5.44
N#C/C(=C\c1ccc(O)c(O)c1)C(=O)OCCc1ccccc1 | Polyunsaturated fatty acid lipoxygenase ALOX15B (Rattus norvegicus, UniProt Q8K4F2) | = | 6.37
CCOC(=O)/C(C#N)=C/c1ccc(O)c(O)c1 | Polyunsaturated fatty acid lipoxygenase ALOX15B (Rattus norvegicus, UniProt Q8K4F2) | = | 6.48
N#C/C(=C\c1ccc(O)c(O)c1)C(=O)OCCCCCCCCn1ccnc1 | Polyunsaturated fatty acid lipoxygenase ALOX15B (Rattus norvegicus, UniProt Q8K4F2) | < | 5.00
COc1ccccc1CCOC(=O)/C(C#N)=C/c1ccc(O)c(O)c1 | Polyunsaturated fatty acid lipoxygenase ALOX15B (Rattus norvegicus, UniProt Q8K4F2) | = | 5.79
N#C/C(=C\c1ccc(O)c(O)c1)C(=O)OCCCc1cccnc1 | Polyunsaturated fatty acid lipoxygenase ALOX15B (Rattus norvegicus, UniProt Q8K4F2) | = | 5.41
N#C/C(=C\c1ccc(O)c(O)c1)C(=O)OCCCc1ccccc1 | Polyunsaturated fatty acid lipoxygenase ALOX15B (Rattus norvegicus, UniProt Q8K4F2) | = | 5.85

* * *

# assayedSystem: 12-lipoxygenase (Rattus norvegicus, UniProt F1LQ70)
# Sequence (F1LQ70 whole entry, looked up): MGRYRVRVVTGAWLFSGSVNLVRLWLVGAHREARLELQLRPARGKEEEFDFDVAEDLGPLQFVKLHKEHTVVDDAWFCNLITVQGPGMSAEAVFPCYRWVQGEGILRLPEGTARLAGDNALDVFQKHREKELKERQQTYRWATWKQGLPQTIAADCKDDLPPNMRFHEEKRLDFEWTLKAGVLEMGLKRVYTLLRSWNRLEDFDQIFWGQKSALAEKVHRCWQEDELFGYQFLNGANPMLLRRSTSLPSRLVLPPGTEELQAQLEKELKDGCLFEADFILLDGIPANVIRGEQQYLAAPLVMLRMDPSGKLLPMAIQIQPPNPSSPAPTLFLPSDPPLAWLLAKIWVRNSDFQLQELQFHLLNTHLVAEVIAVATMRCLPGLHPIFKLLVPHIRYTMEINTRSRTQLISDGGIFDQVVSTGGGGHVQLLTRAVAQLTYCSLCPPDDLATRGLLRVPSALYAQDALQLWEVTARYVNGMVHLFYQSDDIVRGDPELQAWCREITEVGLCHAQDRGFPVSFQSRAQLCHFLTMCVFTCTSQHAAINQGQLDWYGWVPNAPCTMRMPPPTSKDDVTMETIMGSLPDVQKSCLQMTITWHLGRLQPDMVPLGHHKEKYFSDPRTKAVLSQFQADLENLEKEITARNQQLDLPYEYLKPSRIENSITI
# measurementNotes: Inhibitory activity against 12-lipoxygenase in rat platelet rich plasma
pIC50: −log10 of the molar value.
The compounds listed here are annotated with their pIC50.

smilesData | assayedSystem | pIC50
N#C/C(=C\c1ccc(O)c(O)c1)C(=O)OCCCCCCCCn1ccnc1 | 12-lipoxygenase (Rattus norvegicus, UniProt F1LQ70) | 6.74
N#C/C(=C\c1ccc(O)c(O)c1)C(=O)OCCc1ccccc1 | 12-lipoxygenase (Rattus norvegicus, UniProt F1LQ70) | 7.29
N#C/C(=C\c1ccc(O)c(O)c1)C(=O)OCCCc1ccccc1 | 12-lipoxygenase (Rattus norvegicus, UniProt F1LQ70) | 7.28
CCOC(=O)/C(C#N)=C/c1ccc(O)c(O)c1 | 12-lipoxygenase (Rattus norvegicus, UniProt F1LQ70) | 7.48
N#C/C(=C\c1ccc(O)c(O)c1)C(=O)OC/C=C/c1ccccc1 | 12-lipoxygenase (Rattus norvegicus, UniProt F1LQ70) | 7.20
N#C/C(=C\c1ccc(O)c(O)c1)C(=O)OCCCc1cccnc1 | 12-lipoxygenase (Rattus norvegicus, UniProt F1LQ70) | 6.33
COc1ccccc1CCOC(=O)/C(C#N)=C/c1ccc(O)c(O)c1 | 12-lipoxygenase (Rattus norvegicus, UniProt F1LQ70) | 7.19
N#C/C(=C\c1ccc(O)c(O)c1)C(=O)OCCCCc1ccccc1 | 12-lipoxygenase (Rattus norvegicus, UniProt F1LQ70) | 6.33
N#C/C(=C\c1ccc(O)c(O)c1)C(=O)OCCc1cccs1 | 12-lipoxygenase (Rattus norvegicus, UniProt F1LQ70) | 7.89
O=c1cc(-c2ccccc2)oc2cc(O)c(O)c(O)c12 | 12-lipoxygenase (Rattus norvegicus, UniProt F1LQ70) | 7.82
